Source: PubChem BioAssay (NCI)

- Test system: HOP-92 NSCLC
- EXPERIMENT_SUMMARY: NCI tumour cell line growth inhibition, 48 h
Where a SMILES comes first, the peptide text is derived from it. [ ]: non-standard residue; d: D form. The star is where a group is joined. NMeF = CN[C@@H](Cc1ccccc1)C(=O)O; NMeV = CN[C@H](C(=O)O)C(C)C; Boc = CC(C)(C)OC(=O)*; OBn = c1ccc(CO*)cc1
Parameter TGI: see the listing below.
EXPERIMENTAL_READOUT: TGI

>>> result("CC(C)[C@@H](C(=O)N1CCC[C@H]1C(=O)OCc1ccccc1)N(C)C(=O)[C@H](C(C)C)N(C)C(=O)[C@H](Cc1ccccc1)N(C)C(=O)[C@H](NC(=O)OC(C)(C)C)C(C)C (Boc-[dV][NMeF][NMeV][NMeV]P-OBn)")
"> 100 µM"
>>> result("Cc1c(C(=O)/C=C/c2c(Cl)cccc2Cl)c(=O)n(-c2ccccc2)n1C")
"74.6 µM"
>>> result("CC(C(=O)O)/C(=C\\c1ccc2c(c1)OCO2)C(=O)O (centres undefined)")
"> 100 µM"
>>> result("O=Nc1sc(=N\\O)/c(=N/O)sc1NO")
"> 100 µM"
